Numbers sourced from PubChem BioAssay AID652142.

- target under test: Rac GTPase-activating protein 1 (Homo sapiens)
- method summary: inhibition of MgcRacGAP-stimulated Rac1 GTP hydrolysis – biochemical, inorganic phosphate detection, orthogonal assay, confirmation (AID 652142)
- run parameters: MgcRacGAP/Rac1F28L GTP hydrolysis, Biomol green phosphate; hits give high values
Fewer than 10 of roughly 2,400 compounds were called active. These entries were drawn from the full list.

- molecule: "CC(C)C1=Nc2cccc3cccc(c23)N1"
  inhibition: "22.3% (inactive)"
- molecule: "C/C(=N\\NC(=O)c1ccccc1F)c1ccc2c(c1)Nc1ccccc1S2"
  inhibition: "20.8% (inactive)"
- molecule: "CC1CCCCN1Cc1c(O)ccc2c(=O)c(-c3nc4ccccc4s3)c(N)oc12 (stereo not drawn)"
  inhibition: "30.4% (inactive)"
- molecule: "COc1ccc(NC2CCCN(C(=O)c3ccc4[nH]c(C)c(C)c4c3)C2)cc1 (stereo not drawn)"
  inhibition: "17.9% (inactive)"
- molecule: "Cc1ccc(NC(=O)CN2CCN(C)CC2)cc1Br"
  inhibition: "26.9% (inactive)"
- molecule: "Cc1ccc(C2C=NN(c3ccccc3)C2=O)cc1 (stereo not drawn)"
  inhibition: "-3.99% (inactive)"
- molecule: "CCCCCC(=O)Nc1cc(S(=O)(=O)O)cc2cc(S(=O)(=O)O)cc(O)c12"
  inhibition: "64.8% (inactive)"
- molecule: "CCOc1cc(/C=C(\\C#N)C(=O)NCC2CCCO2)ccc1O (stereo not drawn)"
  inhibition: "23.9% (inactive)"
- molecule: "COc1cc(/C=N/Nc2nc3ccccc3[nH]2)ccc1O"
  inhibition: "12.2% (inactive)"
- molecule: "C=CCn1c(=O)/c(=C/c2ccc(O)cc2)s/c1=C(/C#N)c1nnc2n1CCCCC2"
  inhibition: "18.2% (inactive)"
- molecule: "C=CCn1c(N/N=C/c2ccc(O)cc2)nc2ccccc2c1=O"
  inhibition: "18.4% (inactive)"
- molecule: "Oc1ccc(Nc2ncnc3ccccc23)cc1"
  inhibition: "20.3% (inactive)"
- molecule: "S=c1[nH]c2ccccc2n2c(=S)[nH]nc12"
  inhibition: "23.8% (inactive)"
- molecule: "COc1cc(/C=N/NC(=S)Nc2cccc(S(=O)(=O)N(C)C)c2)ccc1O"
  inhibition: "20.1% (inactive)"
- molecule: "C/C(CC(=O)Nc1ccc(N(C)C)cc1)=N\\NC(=O)c1ccc([N+](=O)[O-])cc1Cl"
  inhibition: "26.5% (inactive)"
- molecule: "Cc1cc(-c2ccccc2)nc(N/N=C/c2ccc(O)cc2)n1"
  inhibition: "18.1% (inactive)"
- molecule: "Cn1c(-c2ccc(Cl)cc2)cnc1NCc1cc2c(cc1[N+](=O)[O-])OCO2"
  inhibition: "22.1% (inactive)"
- molecule: "COc1ccc(NC(=O)c2ccc(NC(=O)CN3CCN(c4ccc(O)cc4)CC3)cc2)cc1"
  inhibition: "18.8% (inactive)"
- molecule: "N=C(N)c1ccc(N=Nc2c(O)ccc3c2[nH]c2ccccc23)cc1"
  inhibition: "62.4% (inactive)"
- molecule: "CC(=O)Nc1ccc(Oc2nc(-c3ccccn3)nc3ccccc23)cc1"
  inhibition: "26% (inactive)"
- molecule: "C=CCn1c(SCC(=O)c2ccc(O)c(O)c2)nnc1-c1cccc(Cl)c1"
  inhibition: "29.9% (inactive)"
- molecule: "Cn1c(=O)c2c([nH]c(=S)n2CCCc2ccccc2)n(C)c1=O"
  inhibition: "26.4% (inactive)"
- molecule: "Cc1ccc(NCCN(C)C)c2c(=O)c3cc(O)ccc3sc12"
  inhibition: "31.1% (inactive)"
